# Experimental Protocol: side-effects on normal cells, mouse foot pad cells (Example 9)
# Format: cell-based
# Test Parameters: mouse, foot pad cells; MIC for Ehlrich cancerous cells versus ED50 for normal cells; read-out: normal cells damaged at the minimum dose inhibiting multiplication of the cancerous cells
Measured Quantity: cytotoxicity (%)
Your answer is read as %, so omit the unit and give the number.

Looking up O=c1[nH]cc(F)c(=O)[nH]1 , I see its cytotoxicity listed as 50

###

# Experimental Protocol: side-effects on normal cells, mouse foot pad cells (Example 9)
# Type: cell-based
# Test Parameters: mouse, foot pad cells; Table 8; normal cells, procedures of Examples 6-8; read-out: ED50
Measured Quantity: CC50 at 72 h (µg/mL)
Your answer is read as µg/mL, so omit the unit and give the number.

Looking up O=c1[nH]cc(F)c(=O)[nH]1 [5-FU, 5-fluorouracil] , I see its CC50 at 72 h listed as 2.5

Looking up Cc1ccccc1C(=O)n1c(=O)[nH]cc(F)c1=O [3-N-o-toluyl-5-FU, 3-N-o-toluyl-5-fluorouracil] , I see its CC50 at 72 h listed as 2.5

These measurements were taken from patent US4196202A.
